tested on: morningglory (Ipomoea coccinea); test: Test C greenhouse herbicide test, pre- and postemergence; assay type: in vivo; conditions: Preemergence, 62 g ai/ha; scale 0 to 100, 0 is no effect, 100 is complete control
Plant response rating, Morningglory overview

>  <Line notation>
Cc1cc(C)c2sc(C)c(-c3c(O)c(C)nn(C)c3=O)c2c1

>  <Plant response rating, Morningglory>
100

$$$$
>  <Line notation>
Cc1cc(C)c2ccccc2c1-c1c(O)c(C)nn(C)c1=O

>  <Plant response rating, Morningglory>
98

$$$$
>  <Line notation>
Cc1nn(C)c(=O)c(-c2ccc(F)c3ccccc23)c1O

>  <Plant response rating, Morningglory>
95

$$$$
>  <Line notation>
CCc1sc2ccc(C)cc2c1-c1c(O)c(C)nn(C)c1=O

>  <Plant response rating, Morningglory>
100

$$$$
>  <Line notation>
CC(=O)Oc1c(C)nn(C)c(=O)c1-c1c(C)sc2ccc(Cl)cc12

>  <Plant response rating, Morningglory>
90

$$$$
